Where do these numbers come from? They come from PubChem BioAssay (NCI).

- Test system: OVCAR-3 ovarian
- assay.text: NCI-60 one-dose screen, 48 h
- assay.conditions: 10 µM unless noted
This is part of a sample that, as a whole, favours compounds with a hit. Of some 83,000 tested, about 20% had one in any assay. Activity calls are given as the source filed them. Rule for the calls: active = growth percent below 10; inactive = the rest.
// one of active, inactive, no free text

Worked examples follow.
| compound | assay.target | answer.label |
| --- | --- | --- |
| CN1CCc2c(sc3ncnc(N/N=C/c4ccc(Cl)cc4Cl)c23)C1 | OVCAR-3 ovarian | active |
| Cc1ccccc1[C@H]1C(C(=O)c2ccc(Cl)cc2)C2(N[C@@H]1c1ccccc1)C(=O)Nc1ccc(Cl)cc12 (stereo partly specified) | OVCAR-3 ovarian | active |
| CCCCSc1nc(NCCc2c[nH]c3ccccc23)c(C#N)c(-c2ccc(F)cc2)n1 | OVCAR-3 ovarian | inactive |
| O=C(Cn1c(/C=C/c2cccc([N+](=O)[O-])c2)nc2ccccc2c1=O)Nc1ccccc1 | OVCAR-3 ovarian | inactive |
| COc1c(F)ccc(C(=O)Nc2ccc3nc(NC(=O)C4CCCN(S(=O)(=O)c5ccc(Br)s5)C4)sc3c2)c1F (stereo unspecified) | OVCAR-3 ovarian | inactive |
| N#Cc1c(-c2cccc(Cl)c2Cl)cc(-c2c[nH]c3ccccc23)[nH]c1=O | OVCAR-3 ovarian | inactive |
| COc1cc(/C=C/C(=O)c2nnn(-c3ccc(Cl)cc3)c2C)cc(OC)c1OC | OVCAR-3 ovarian | inactive |
| CCCCc1c(Nn2cnnn2)no[n+]1[O-] | OVCAR-3 ovarian | inactive |

# input Per the assay record, what outcome was assigned to `C/C(=N\Nc1ccc(S(N)(=O)=O)cc1)c1ccc(N=Nc2c(Nc3ccccc3)[nH][nH]c2=O)cc1` ?
# output active

# input For this compound, state the assay outcome: `Nc1nc(-c2ccccc2)c(N=Nc2ccc([N+](=O)[O-])cc2Cl)s1`
# output inactive

# input Called result for `CCCCSc1nc(NCCc2c[nH]c3ccccc23)c(C#N)c(-c2ccccc2)n1`
# output inactive
